Origin of the recorded values: patent US20240041042A1

tested on: Oryza sativa (ORYSA); type: in vivo; conditions: crop plant compatibility, 320 g/ha, effect in comparison to untreated controls
Recorded Post-emergence action against ORYSA in % by entry
I only need the number, in %, no unit after it.

[[record]]
smiles_string = "C=CCNC(=O)COc1nn(-c2ncccc2F)c(-c2ccc(F)nc2)c1Br"
recorded_endpoint = "Post-emergence action against ORYSA in %"
test_result = 10

[[record]]
smiles_string = "Cc1cccc(-n2nc(OCC(=O)O)c(Br)c2-c2ccc(F)nc2)n1"
recorded_endpoint = "Post-emergence action against ORYSA in %"
test_result = 20

[[record]]
smiles_string = "CCOC(=O)COc1nn(-c2ncccc2OC)c(-c2ccc(F)nc2)c1Br"
recorded_endpoint = "Post-emergence action against ORYSA in %"
test_result = 0

[[record]]
smiles_string = "COC(=O)CCOC(=O)COc1nn(-c2ncccc2C(F)(F)F)c(-c2ccc(F)nc2)c1Br"
recorded_endpoint = "Post-emergence action against ORYSA in %"
test_result = 20

[[record]]
smiles_string = "C[C@@H](Oc1nn(-c2ncccc2F)c(-c2ccnc(F)c2)c1Br)C(=O)O"
recorded_endpoint = "Post-emergence action against ORYSA in %"
test_result = 10


Kindly review the next compound as well.
## Input May I ask what Post-emergence action against ORYSA in % has been recorded for `O=C(O)COc1nn(-c2ncccc2F)c(-c2ccnc(F)c2)c1Br` ?
## Output 10

----------
Recorded Post-emergence action against POLCO in % by entry
test system: Polygonum convolvulus (POLCO); test: Post-emergence herbicidal action against POLCO; format: in vivo; conditions: dosage 80 g/ha
I only need the number, in %, no unit after it.

Example entries begin here.
[[record]]
compound = "C[C@@H](Oc1nn(-c2ncccc2F)c(-c2cncc(F)c2)c1C1CC1)C(=O)O"
tested_system = "Polygonum convolvulus (POLCO)"
test_result = 80

[[record]]
compound = "CCOC(=O)COc1nn(-c2cccc(C)n2)c(-c2ccc(F)nc2)c1Br"
tested_system = "Polygonum convolvulus (POLCO)"
test_result = 80

[[record]]
compound = "CC(C)OC(=O)COc1nn(-c2ncccc2F)c(-c2ccc(F)nc2)c1C1CC1"
tested_system = "Polygonum convolvulus (POLCO)"
test_result = 90


Kindly review the next compound as well.
## Input May I ask what Post-emergence action against POLCO in % has been recorded for `O=C(O)COc1nn(-c2ncccc2F)c(-c2cncc(F)c2)c1Cl` ?
## Output 80

----------
Recorded Post-emergence action against SETVI in % by entry
system: Setaria viridis (SETVI); test: Post-emergence herbicidal action against SETVI; type: in vivo; conditions: dosage 80 g/ha
I only need the number, in %, no unit after it.

Example entries begin here.
[[record]]
compound = "CCOC(=O)COc1nn(-c2nc(F)ccc2F)c(-c2cncc(F)c2)c1C1CC1"
recorded_endpoint = "Post-emergence action against SETVI in %"
reading_unit = "%"
test_result = 80

[[record]]
compound = "O=C(O)COc1nn(-c2ccccn2)c(-c2cncc(F)c2)c1Cl"
recorded_endpoint = "Post-emergence action against SETVI in %"
reading_unit = "%"
test_result = 80

[[record]]
compound = "COC(=O)COc1nn(-c2ncccc2C)c(-c2cncc(F)c2)c1Br"
recorded_endpoint = "Post-emergence action against SETVI in %"
reading_unit = "%"
test_result = 90

[[record]]
compound = "COC(=O)[C@H](C)COC(=O)COc1nn(-c2ccccn2)c(-c2cncc(F)c2)c1Cl"
recorded_endpoint = "Post-emergence action against SETVI in %"
reading_unit = "%"
test_result = 80

[[record]]
compound = "CCOC(=O)COc1nn(-c2ncccc2C)c(-c2cncc(F)c2)c1Cl"
recorded_endpoint = "Post-emergence action against SETVI in %"
reading_unit = "%"
test_result = 80


## Input May I ask what Post-emergence action against SETVI in % has been recorded for `Cc1cccnc1-n1nc(OCC(=O)O)c(Cl)c1-c1cncc(F)c1` ?
## Output 80
